assay: Ex vivo biodistribution of 177Lu-labeled ligands in PC-3 tumor-bearing mice; settings: male, NOD.Cg-Rag1^tm1Mom Il2rg^tm1Wjl/SzJ (NRG), mouse, tumor/blood, iv, total radioactivity, 120 h pi, n = 5; read-out: Tumor/blood uptake ratio
assay.metric: tissue to tissue ratio at 120 h
Respond numerically, and do not add a unit to the figure.

compound	tissue to tissue ratio at 120 h
CC(C)C[C@@H](CN1CC(F)(F)C[C@H]1C(N)=O)NC(=O)[C@H](Cc1c[nH]cn1)NC(=O)CN(C)C(=O)[C@@H](NC(=O)[C@H](C)NC(=O)[C@H](Cc1c[nH]c2ccccc12)NC(=O)[C@H](CCC(N)=O)NC(=O)[C@@H](Cc1ccccc1)NC(=O)CN1CCC(NC(=O)CN2CCN(CC(=O)O)CCN(CC(=O)O)CCN(CC(=O)O)CC2)CC1)C(C)C [[^177Lu]Lu-LW02080, metal not drawn]	529

Moving on to another compound below.
Prompt line: Data request, read-out tissue to tissue ratio at 120 h, for CC(C)C[C@H](NC(=O)[C@H](Cc1cnc[nH]1)N(C)C(=O)CNC(=O)[C@@H](NC(=O)[C@H](C)NC(=O)[C@H](Cc1c[nH]c2ccccc12)NC(=O)[C@H](CCC(N)=O)NC(=O)[C@@H](Cc1ccccc1)NC(=O)CN1CCC(NC(=O)CN2CCN(CC(=O)O)CCN(CC(=O)O)CCN(CC(=O)O)CC2)CC1)C(C)(C)C)C(=O)N1CC(F)(F)C[C@H]1C(N)=O [[^177Lu]Lu-LW02060, metal not drawn]
Response line: 1630

====

Readings of tissue uptake at 120 h for the listed molecules
test: Ex vivo biodistribution of 177Lu-labeled ligands in PC-3 tumor-bearing mice; conditions: mouse, liver, intravenous, 120 h pi, n = 5; read-out: Liver uptake
Could you give me the number in %ID/g? Just the number is fine.

molecule	recorded.measurement
CC(C)C[C@@H](CN1CC(F)(F)C[C@H]1C(N)=O)NC(=O)[C@H](Cc1c[nH]cn1)NC(=O)CN(C)C(=O)[C@@H](NC(=O)[C@H](C)NC(=O)[C@H](Cc1c[nH]c2ccccc12)NC(=O)[C@H](CCC(N)=O)NC(=O)[C@@H](Cc1ccccc1)NC(=O)CN1CCC(NC(=O)CN2CCN(CC(=O)O)CCN(CC(=O)O)CCN(CC(=O)O)CC2)CC1)C(C)C [[^177Lu]Lu-LW02080, metal not drawn]	0.03

Moving on to another molecule below.
Prompt line: Data request, read-out tissue uptake at 120 h, for CC(C)C[C@H](NC(=O)[C@H](Cc1cnc[nH]1)N(C)C(=O)CNC(=O)[C@@H](NC(=O)[C@H](C)NC(=O)[C@H](Cc1c[nH]c2ccccc12)NC(=O)[C@H](CCC(N)=O)NC(=O)[C@@H](Cc1ccccc1)NC(=O)CN1CCC(NC(=O)CN2CCN(CC(=O)O)CCN(CC(=O)O)CCN(CC(=O)O)CC2)CC1)C(C)(C)C)C(=O)N1CC(F)(F)C[C@H]1C(N)=O [[^177Lu]Lu-LW02060, metal not drawn]
Response line: 0.07

====

experiment: Ex vivo biodistribution of 177Lu-labeled ligands in PC-3 tumor-bearing mice; conditions: mouse, testes, intravenous, 1 h pi, n = 5; read-out: Testes uptake
assay.metric: tissue uptake at 1 h (%ID/g)
Could you give me the number in %ID/g? Just the number is fine.

compound	unit.abbreviation	tissue uptake at 1 h
CC(C)C[C@@H](CN1CC(F)(F)C[C@H]1C(N)=O)NC(=O)[C@H](Cc1c[nH]cn1)NC(=O)CN(C)C(=O)[C@@H](NC(=O)[C@H](C)NC(=O)[C@H](Cc1c[nH]c2ccccc12)NC(=O)[C@H](CCC(N)=O)NC(=O)[C@@H](Cc1ccccc1)NC(=O)CN1CCC(NC(=O)CN2CCN(CC(=O)O)CCN(CC(=O)O)CCN(CC(=O)O)CC2)CC1)C(C)C [[^177Lu]Lu-LW02080, metal not drawn]	%ID/g	0.2

Prompt line: Data request, read-out tissue uptake at 1 h, for CC(C)C[C@H](NC(=O)[C@H](Cc1cnc[nH]1)N(C)C(=O)CNC(=O)[C@@H](NC(=O)[C@H](C)NC(=O)[C@H](Cc1c[nH]c2ccccc12)NC(=O)[C@H](CCC(N)=O)NC(=O)[C@@H](Cc1ccccc1)NC(=O)CN1CCC(NC(=O)CN2CCN(CC(=O)O)CCN(CC(=O)O)CCN(CC(=O)O)CC2)CC1)C(C)(C)C)C(=O)N1CC(F)(F)C[C@H]1C(N)=O [[^177Lu]Lu-LW02060, metal not drawn]
Response line: 0.18

====

test: Ex vivo biodistribution of 68Ga-labeled tracers in PC-3 tumor-bearing mice; details: mouse, small intestine, intravenous, 100 ug; 1 h pi, blocked (100 µg blocking agent co-injected); read-out: Small intestine uptake
Readings of tissue uptake at 1 h for the listed compounds
Could you give me the number in %ID/g? Just the number is fine.

compound	unit.abbreviation	recorded.measurement
CC(C)C[C@@H](CN1CC(F)(F)C[C@H]1C(N)=O)NC(=O)[C@H](Cc1c[nH]cn1)NC(=O)CN(C)C(=O)[C@@H](NC(=O)[C@H](C)NC(=O)[C@H](Cc1c[nH]c2ccccc12)NC(=O)[C@H](CCC(N)=O)NC(=O)[C@@H](Cc1ccccc1)NC(=O)CN1CCC(NC(=O)CN2CCN(CC(=O)O)CCN(CC(=O)O)CCN(CC(=O)O)CC2)CC1)C(C)C [[^68Ga]Ga-LW02080, metal not drawn]	%ID/g	1.04

Moving on to another compound below.
Prompt line: Data request, read-out tissue uptake at 1 h, for CC(C)C[C@H](NC(=O)[C@H](Cc1cnc[nH]1)N(C)C(=O)CNC(=O)[C@@H](NC(=O)[C@H](C)NC(=O)[C@H](Cc1c[nH]c2ccccc12)NC(=O)[C@H](CCC(N)=O)NC(=O)[C@@H](Cc1ccccc1)NC(=O)CN1CCC(NC(=O)CN2CCN(CC(=O)O)CCN(CC(=O)O)CCN(CC(=O)O)CC2)CC1)C(C)(C)C)C(=O)N1CC(F)(F)C[C@H]1C(N)=O [[^68Ga]Ga-LW02060, metal not drawn]
Response line: 0.72

====

assay: Ex vivo biodistribution of 68Ga-labeled tracers in PC-3 tumor-bearing mice; conditions: mouse, bone, intravenous; 1 h pi, n = 4; read-out: Bone uptake
Readings of tissue uptake at 1 h for the listed molecules
Could you give me the number in %ID/g? Just the number is fine.

molecule	assay.metric	recorded.measurement
CC(C)C[C@H](NC(=O)[C@H](Cc1cnc[nH]1)N(C)C(=O)CNC(=O)[C@@H](NC(=O)[C@H](C)NC(=O)[C@H](Cc1c[nH]c2ccccc12)NC(=O)[C@H](CCC(N)=O)NC(=O)[C@@H](Cc1ccccc1)NC(=O)CN1CCC(NC(=O)CN2CCN(CC(=O)O)CCN(CC(=O)O)CCN(CC(=O)O)CC2)CC1)C(C)(C)C)C(=O)N1CC(F)(F)C[C@H]1C(N)=O [[^68Ga]Ga-LW02060, metal not drawn]	tissue uptake at 1 h	0.1

Moving on to another molecule below.
Prompt line: Data request, read-out tissue uptake at 1 h, for CC(C)C[C@@H](CN1CC(F)(F)C[C@H]1C(N)=O)NC(=O)[C@H](Cc1c[nH]cn1)NC(=O)CN(C)C(=O)[C@@H](NC(=O)[C@H](C)NC(=O)[C@H](Cc1c[nH]c2ccccc12)NC(=O)[C@H](CCC(N)=O)NC(=O)[C@@H](Cc1ccccc1)NC(=O)CN1CCC(NC(=O)CN2CCN(CC(=O)O)CCN(CC(=O)O)CCN(CC(=O)O)CC2)CC1)C(C)C [[^68Ga]Ga-LW02080, metal not drawn]
Response line: 0.11

====

Readings of tissue to tissue ratio at 72 h for the listed compounds
assay: Ex vivo biodistribution of 177Lu-labeled ligands in PC-3 tumor-bearing mice; settings: male, NOD.Cg-Rag1^tm1Mom Il2rg^tm1Wjl/SzJ (NRG), mouse, tumor/muscle, iv, total radioactivity, 72 h pi, n = 5; read-out: Tumor/muscle uptake ratio
Respond numerically, and do not add a unit to the figure.

compound	tissue to tissue ratio at 72 h
CC(C)C[C@H](NC(=O)[C@H](Cc1cnc[nH]1)N(C)C(=O)CNC(=O)[C@@H](NC(=O)[C@H](C)NC(=O)[C@H](Cc1c[nH]c2ccccc12)NC(=O)[C@H](CCC(N)=O)NC(=O)[C@@H](Cc1ccccc1)NC(=O)CN1CCC(NC(=O)CN2CCN(CC(=O)O)CCN(CC(=O)O)CCN(CC(=O)O)CC2)CC1)C(C)(C)C)C(=O)N1CC(F)(F)C[C@H]1C(N)=O [[^177Lu]Lu-LW02060, metal not drawn]	522

Moving on to another compound below.
Prompt line: Data request, read-out tissue to tissue ratio at 72 h, for CC(C)C[C@@H](CN1CC(F)(F)C[C@H]1C(N)=O)NC(=O)[C@H](Cc1c[nH]cn1)NC(=O)CN(C)C(=O)[C@@H](NC(=O)[C@H](C)NC(=O)[C@H](Cc1c[nH]c2ccccc12)NC(=O)[C@H](CCC(N)=O)NC(=O)[C@@H](Cc1ccccc1)NC(=O)CN1CCC(NC(=O)CN2CCN(CC(=O)O)CCN(CC(=O)O)CCN(CC(=O)O)CC2)CC1)C(C)C [[^177Lu]Lu-LW02080, metal not drawn]
Response line: 356

Measured values drawn from paper PMC11859184 for this set.
